- System tested: human melanin concentrating hormone type 2 receptor (MCH-2R) (human, UniProt Q969V1 1-340)
- Sequence (Q969V1 whole entry, form in doubt): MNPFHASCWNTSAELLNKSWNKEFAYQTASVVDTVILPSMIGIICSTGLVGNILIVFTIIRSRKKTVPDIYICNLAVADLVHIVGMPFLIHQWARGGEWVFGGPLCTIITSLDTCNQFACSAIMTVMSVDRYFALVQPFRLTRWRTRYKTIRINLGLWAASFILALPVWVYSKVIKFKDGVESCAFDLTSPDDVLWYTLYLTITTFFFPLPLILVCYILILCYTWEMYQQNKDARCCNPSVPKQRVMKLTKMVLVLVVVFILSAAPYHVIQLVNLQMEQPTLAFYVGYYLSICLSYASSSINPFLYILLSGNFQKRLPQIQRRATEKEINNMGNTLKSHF
- Protocol summary: cell-based or functional assay
Bridges are numbered along the chain shown (N, C = ends). [ ]: non-standard residue; d: D form. Arg(NO2) = N=C(NCCC[C@H](N)C(=O)O)N[N+](=O)[O-]; Nle = CCCC[C@H](N)C(=O)O; Aib = CC(C)(N)C(=O)O
Reported property: Activation % at 10 µM (aequorin functional assay) (%)

Recorded results for 4 binders are shown here.
Ac-RCMLG[Nle]VYRPC-NH2 (disulfide 2-11 (inferred), also called Nle^11) [SEQ. ID. NO. 26]; 34
Ac-RCML[Aib]RVYRPC-NH2 (disulfide 2-11; SMILES CSCC[C@@H]1NC(=O)[C@@H](NC(=O)[C@H](CCCNC(=N)N)NC(C)=O)CSSC[C@@H](C(N)=O)NC(=O)[C@@H]2CCCN2C(=O)[C@H](CCCNC(=N)N)NC(=O)[C@H](Cc2ccc(O)cc2)NC(=O)[C@H](C(C)C)NC(=O)[C@H](CCCNC(=N)N)NC(=O)C(C)(C)NC(=O)[C@H](CC(C)C)NC1=O, also called Aib^10) [SEQ. ID. NO. 11]; 104
RCMLGRVXRPC ((2)Nal^13 ((2')naphthylalanine)) [SEQ. ID. NO. 28]; 90
Ac-RCMLSRVYRPC-NH2 (disulfide 2-11; SMILES CSCC[C@@H]1NC(=O)[C@@H](NC(=O)[C@H](CCCNC(=N)N)NC(C)=O)CSSC[C@@H](C(N)=O)NC(=O)[C@@H]2CCCN2C(=O)[C@H](CCCNC(=N)N)NC(=O)[C@H](Cc2ccc(O)cc2)NC(=O)[C@H](C(C)C)NC(=O)[C@H](CCCNC(=N)N)NC(=O)[C@H](CO)NC(=O)[C@H](CC(C)C)NC1=O, also called Ser^10) [SEQ. ID. NO. 10]; 95

I. RCMLXRVYRPC (Nle^10 (norleucine)) [SEQ. ID. NO. 9]
II. Ac-RCML[dA][Arg(NO2)]VYRPC-NH2 (disulfide 2-11 (inferred), also called D-Ala^10, Arg(NO2)^11) [SEQ. ID. NO. 37]
Problem: Short answer wanted: higher Activation % at 10 µM (aequorin functional assay), I or II ? // respond with label for picked entry
Result: I
(I: 103%, II: 34%)
